All values here come from PubChem BioAssay (NCI).

Tested on: SF-295 CNS
procedure.text: NCI tumour cell line growth inhibition, 48 h
assay.metric: TGI

Below, each entry is followed by its recorded TGI result.
[[record]]
compound = "Cc1cc(C)nc(NS(=O)(=O)c2ccc(NC(=O)c3cccc4c(Nc5ccc(S(=O)(=O)Nc6nc(C)cc(C)n6)cc5)c5ccccc5nc34)cc2)n1"
assay_metric = "TGI"
test_value = "51.5 µM"

[[record]]
compound = "COc1ccc2c(CC(=O)O)cc(=O)oc2c1"
assay_metric = "TGI"
test_value = "> 100 µM"

[[record]]
compound = "Nc1ccccc1/C=N\\Nc1ccccc1"
assay_metric = "TGI"
test_value = "> 100 µM"


The compound Fc1ccc(CNc2c3ccccc3nc3ccccc23)cc1 showed TGI equal to 11.1 µM

The compound O=c1cc2n(c(=O)[nH]1)C1OC(C(O)C1O)[C@H]2CCO (stereo partly specified) showed TGI equal to > 100 µM

The compound O=C1CSC(=S)N1c1ccc(F)cc1F showed TGI equal to > 100 µM

###

Listed compounds paired with reported TGI
Tested on: SR leukemia
procedure.text: NCI tumour cell line growth inhibition, 48 h

[[record]]
compound = "O=C1NCC2(CCN(Cc3ccccc3)CC2)N1"
assay_metric = "TGI"
test_value = "> 100 µM"

[[record]]
compound = "CC(C)(C)[Si](C)(C)OCC1OC(n2cc(F)c(=O)[nH]c2=O)CC1O[Si](C)(C)C(C)(C)C (stereo unspecified)"
assay_metric = "TGI"
test_value = "7.08 µM"

[[record]]
compound = "CCOC(=O)N1CC2(C(=O)OC)C=CC1C(C(=O)OC)C2 (stereo unspecified)"
assay_metric = "TGI"
test_value = "> 100 µM"

[[record]]
compound = "CSc1c(CC(=O)O)n(Cc2ccccc2)c2ccccc12"
assay_metric = "TGI"
test_value = "> 100 µM"

[[record]]
compound = "NC(=O)Cc1ncn(-c2ccccc2)n1"
assay_metric = "TGI"
test_value = "> 100 µM"

[[record]]
compound = "O=C(CCc1nnc2s/c(=C\\c3ccc4c(c3)OCO4)c(=O)n12)Nc1cc(Cl)ccc1Cl"
assay_metric = "TGI"
test_value = "> 100 µM"

[[record]]
compound = "SC[C@@H]1COC[C@H](CS)S1"
assay_metric = "TGI"
test_value = "> 100 µM"

[[record]]
compound = "CC(C)(C)c1ccc(-c2nc3ccccc3c(=O)o2)cc1"
assay_metric = "TGI"
test_value = "54.2 µM"


The compound COC(=O)[C@@]12CC[C@]1(C(=O)OC)C1C(C)=CC(=O)O[C@@]12C (stereo partly specified) showed TGI equal to > 100 µM

The compound COc1cc(C2c3cc4c(cc3[C@H](NC(=O)c3cccs3)C3COC(=O)[C@H]23)OCO4)cc(OC)c1OC (stereo partly specified) showed TGI equal to 17.7 µM

The compound O=C1C(c2ccc([N+](=O)[O-])cc2)=[N+]([O-])c2ccccc21 showed TGI equal to 62.3 µM

###

Listed compounds paired with reported TGI
Tested on: OVCAR-8 ovarian
procedure.text: NCI tumour cell line growth inhibition, 48 h

Below, each entry is followed by its recorded TGI result.
[[record]]
compound = "Nc1nc(=O)n(C2CC(O)C(O)C(CO)O2)cc1F (configuration not stated)"
test_value = "> 100 µM"

[[record]]
compound = "OC(c1ccc(F)cc1)C(F)(F)c1nc(-c2ccccc2)no1 (configuration not stated)"
test_value = "> 100 µM"

[[record]]
compound = "O=C(O)c1cc(N/C=C2\\C(=O)c3ccccc3OC2O)ccc1O (configuration not stated)"
test_value = "> 150 µg/mL"

[[record]]
compound = "C=C1C(=O)O[C@H]2[C@H]1CC/C(C=Nc1ccc(C(F)(F)F)cc1N)=C\\CC[C@@]1(C)O[C@@H]21"
test_value = "15.9 µM"

[[record]]
compound = "C(=N/Nc1ncnc2nc[nH]c12)/c1ccccn1"
test_value = "> 100 µM"

[[record]]
compound = "COc1ccc(C(=O)C(c2ccc(OC)cc2)C2C(=O)Oc3ccccc32)cc1 (configuration not stated)"
test_value = "> 100 µM"


The compound C=CCCC(O)c1ccc(C(O)CCCCCCCCCCCC)o1 (configuration not stated) showed TGI equal to 30.3 µM

The compound COC(=O)c1ccccc1/C=C1\Cc2cc3c(cc2C1=O)CCC3 showed TGI equal to > 100 µM

The compound CSC(=S)N/N=C/c1ccccc1 showed TGI equal to > 100 µM

The compound Cc1cc(Cl)ccc1NC(=O)/C(Cl)=C(/Cl)C(=O)O showed TGI equal to 34.2 µM

The compound SC[C@@H]1COC[C@H](CS)S1 showed TGI equal to > 100 µM
